Reported pIC50 values are given for each entry in this list.
# EXPERIMENTAL SYSTEM: NSD2 [1-1365] (Homo sapiens (Human), UniProt O96028)
# Sequence (O96028 whole entry): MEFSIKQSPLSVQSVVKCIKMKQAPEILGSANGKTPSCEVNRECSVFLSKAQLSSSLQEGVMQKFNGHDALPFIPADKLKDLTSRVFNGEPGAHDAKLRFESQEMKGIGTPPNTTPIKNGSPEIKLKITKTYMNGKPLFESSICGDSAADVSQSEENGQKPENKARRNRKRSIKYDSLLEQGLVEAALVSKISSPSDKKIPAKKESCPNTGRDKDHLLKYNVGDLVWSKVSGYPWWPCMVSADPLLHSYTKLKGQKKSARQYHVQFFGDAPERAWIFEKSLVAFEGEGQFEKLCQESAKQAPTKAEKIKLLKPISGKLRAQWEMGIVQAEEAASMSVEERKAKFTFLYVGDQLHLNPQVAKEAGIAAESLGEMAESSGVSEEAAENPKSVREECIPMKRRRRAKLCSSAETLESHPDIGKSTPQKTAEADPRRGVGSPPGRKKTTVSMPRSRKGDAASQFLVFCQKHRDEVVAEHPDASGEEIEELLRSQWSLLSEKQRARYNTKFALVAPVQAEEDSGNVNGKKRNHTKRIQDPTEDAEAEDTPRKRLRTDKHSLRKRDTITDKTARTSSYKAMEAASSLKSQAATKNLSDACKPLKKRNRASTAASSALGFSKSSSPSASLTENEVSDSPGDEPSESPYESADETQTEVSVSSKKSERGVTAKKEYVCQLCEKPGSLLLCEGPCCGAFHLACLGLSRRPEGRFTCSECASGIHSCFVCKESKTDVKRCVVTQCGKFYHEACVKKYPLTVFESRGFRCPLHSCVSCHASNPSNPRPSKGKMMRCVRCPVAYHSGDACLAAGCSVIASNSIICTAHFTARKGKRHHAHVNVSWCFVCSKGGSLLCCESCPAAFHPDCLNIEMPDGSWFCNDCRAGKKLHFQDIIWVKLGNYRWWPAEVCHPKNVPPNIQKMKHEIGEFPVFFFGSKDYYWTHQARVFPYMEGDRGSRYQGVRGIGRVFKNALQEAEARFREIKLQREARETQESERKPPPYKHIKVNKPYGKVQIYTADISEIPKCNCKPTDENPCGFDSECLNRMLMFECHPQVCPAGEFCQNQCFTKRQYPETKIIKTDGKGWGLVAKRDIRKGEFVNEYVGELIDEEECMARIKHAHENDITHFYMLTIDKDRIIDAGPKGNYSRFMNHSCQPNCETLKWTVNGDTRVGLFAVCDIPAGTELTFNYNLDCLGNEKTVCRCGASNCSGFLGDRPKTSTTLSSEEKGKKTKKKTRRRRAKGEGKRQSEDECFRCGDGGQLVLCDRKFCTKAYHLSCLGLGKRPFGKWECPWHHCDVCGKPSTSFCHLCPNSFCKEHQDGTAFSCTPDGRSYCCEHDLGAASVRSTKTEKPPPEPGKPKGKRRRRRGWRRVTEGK
# ASSAY NOTES: LC-MS/MS-based NSD2 enzymatic assay (SAH production)
# Type: biochemical
# EXPERIMENTAL CONTEXT: NSD2 biochemical activity, class symbols; read-out: NSD2 IC50
pIC50: −log10 of the molar value.
QUANTITY NAME: pIC50

| COMPOUND | EXPERIMENTAL SYSTEM | QUANTITY NAME | ENDPOINT RESULT |
| --- | --- | --- | --- |
| Nc1ncnc2c1ncn2Cc1cc(-c2cc(F)c(O)cc2F)ncc1N1CCC[C@](N)([C@H](O)C(F)F)C1 | NSD2 [1-1365] (Homo sapiens (Human), UniProt O96028) | pIC50 | 6.00 to 8.00 |
| Nc1ncnc2c1ncn2Cc1cc(-c2cccc(Cl)c2)ncc1N1CC[C@@H](F)[C@@H](N)C1 | NSD2 [1-1365] (Homo sapiens (Human), UniProt O96028) | pIC50 | 6.00 to 8.00 |
| CC1CCCCN1C(=O)C1(N)CCCN(c2cnc(-c3ccc(F)c(F)c3)cc2Cn2cnc3c(N)ncnc32)C1 (stereo not shown) | NSD2 [1-1365] (Homo sapiens (Human), UniProt O96028) | pIC50 | 6.00 to 8.00 |
| Nc1ncnc2c1ncn2Cc1cc(C2CCCCC2)ncc1N1CCC[C@](N)([C@H](O)C(F)F)C1 | NSD2 [1-1365] (Homo sapiens (Human), UniProt O96028) | pIC50 | 6.00 to 8.00 |

Data provenance is patent US11420970B1.
